TESTED TARGET: σ1 receptors (Rattus norvegicus, UniProt Q9R0C9)
Sequence (Q9R0C9 whole entry): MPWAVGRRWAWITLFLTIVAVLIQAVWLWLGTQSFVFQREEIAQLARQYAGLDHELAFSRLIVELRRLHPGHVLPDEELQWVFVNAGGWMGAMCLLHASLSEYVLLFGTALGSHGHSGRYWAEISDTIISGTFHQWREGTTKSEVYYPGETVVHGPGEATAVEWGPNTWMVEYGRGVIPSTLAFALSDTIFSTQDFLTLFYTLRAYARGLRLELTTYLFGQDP
ASSAY COMMENT: σ1 competition binding, [3H]
TEST CONDITIONS: read-out: Ki (nM) σ1; Table 2; 96-well filtration method, rat liver P2, 5 nM [3H](+)-pentazocine
READOUT NAME: Ki

>  <SMILES NOTATION>
CCCc1ccc2c(c1)sc(=O)n2CCN1CCCCCC1

>  <TESTED TARGET>
σ1 receptors (Rattus norvegicus, UniProt Q9R0C9)

>  <OBSERVED MEASUREMENT>
1.6 nM

$$$$

----------
TESTED TARGET: σ1 receptors (Rattus norvegicus, UniProt Q9R0C9)
TEST CONDITIONS: read-out: Ki at σ1 (nM) Experimental Brain/Brandel; rat brain P2, 5 nM [3H](+)-pentazocine, cell harvester
Structures can show the parent of a compound that is named as a salt.
READOUT NAME: Ki (nM)

>  <COMPOUND>
c1ccc(CCN2CCCCC2)cc1 [AC927, N-phenethylpiperidine oxalate]

>  <OBSERVED MEASUREMENT>
61.2

$$$$
>  <COMPOUND>
CCCc1ccc2c(c1)sc(=O)n2CCN1CCCCCC1

>  <OBSERVED MEASUREMENT>
1.7

$$$$
>  <COMPOUND>
C=CCN1CCC2(C)c3cc(O)ccc3CC1C2C (single isomer, unassigned; (+)) [(+)-SKF10, 047, (+)-N-allylnormetazocine hydrochloride]

>  <OBSERVED MEASUREMENT>
287

$$$$
